test system: P. vulgatus WT; experiment: growth AUC normalised to DMSO control (median) (fraction of control); higher = less growth inhibition, active = hit call of the paper; conditions: 20 µM
Where a name gives a salt, the structure may show the parent alone.
Measure name: growth AUC normalised to DMSO control

[
  {
    "Molecule": "NS(=O)(=O)c1cc2c(cc1Cl)NC(C(Cl)Cl)NS2(=O)=O (centres undefined) [Trichlormethiazide]",
    "Result": 0.982
  },
  {
    "Molecule": "O=C(O)COc1nn(Cc2ccccc2)c2ccccc12",
    "Result": 1.02
  },
  {
    "Molecule": "NNc1nncc2ccccc12 [Hydralazine hydrochloride]",
    "Result": 1.04
  },
  {
    "Molecule": "CCN(CC)CC(=O)Nc1c(C)cccc1C [Lidocaine hydrochloride]",
    "Result": 1.03
  },
  {
    "Molecule": "CC(C)NCC(O)c1ccc(NS(C)(=O)=O)cc1 (centres undefined) [Sotalol hydrochloride]",
    "Result": 1.06
  },
  {
    "Molecule": "Cc1ccc(C(=O)c2ccc(CC(=O)O)n2C)cc1 [Tolmetin sodium salt dihydrate]",
    "Result": 0.985
  },
  {
    "Molecule": "CCCCc1nc(Cl)c(CO)n1Cc1ccc(-c2ccccc2-c2nnn[nH]2)cc1",
    "Result": 0.977
  },
  {
    "Molecule": "Clc1ccc(CO/N=C(\\Cn2ccnc2)c2ccc(Cl)cc2Cl)c(Cl)c1 [Oxiconazole nitrate]",
    "Result": 1.04
  },
  {
    "Molecule": "COc1ncnc(NS(=O)(=O)c2ccc(N)cc2)c1OC",
    "Result": 0.982
  }
]

---

test system: P. vulgatus RND KO; assay: growth AUC normalised to DMSO control (median) (fraction of control); higher = less growth inhibition, active = hit call of the paper; conditions: 20 µM
Structures can show the parent of a compound that is named as a salt.
The compounds listed here are annotated with their growth AUC normalised to DMSO control.

[
  {
    "Compound": "CN1Cc2c(N)cccc2C(c2ccccc2)C1 (centres undefined) [Nomifensine maleate]",
    "Target desc": "P. vulgatus RND KO",
    "growth AUC normalised to DMSO control": 1
  },
  {
    "Compound": "NC[C@@H]1O[C@H](O[C@H]2[C@@H](O)[C@H](O[C@@H]3[C@@H](O)[C@H](N)C[C@H](N)[C@H]3O[C@H]3O[C@H](CN)[C@@H](O)[C@H](O)[C@H]3N)O[C@@H]2CO)[C@H](N)[C@@H](O)[C@@H]1O [Neomycin sulfate]",
    "Target desc": "P. vulgatus RND KO",
    "growth AUC normalised to DMSO control": 1.02
  },
  {
    "Compound": "COC(=O)Nc1nc2cc(C(=O)c3ccccc3)ccc2[nH]1",
    "Target desc": "P. vulgatus RND KO",
    "growth AUC normalised to DMSO control": 0.998
  },
  {
    "Compound": "CC(=O)Oc1c(C)cccc1C(=O)O",
    "Target desc": "P. vulgatus RND KO",
    "growth AUC normalised to DMSO control": 0.998
  }
]

---

system: Vibrio cholerae; assay: growth AUC normalised to DMSO control (fraction of control); higher = less growth inhibition, active = hit call of the paper; details: 20 µM
Structures can show the parent of a compound that is named as a salt.
Measure name: growth AUC normalised to DMSO control

[
  {
    "Compound": "CCN(CC)CCOC(=O)C1(c2ccc([N+](=O)[O-])cc2)CCCC1 [Nitrocaramiphen hydrochloride]",
    "Measure name": "growth AUC normalised to DMSO control",
    "Result": 0.974
  },
  {
    "Compound": "COC(=O)C1=C(C)NC(C)=C(C(=O)OC(C)C)C1c1cccc2nonc12 (stereo not drawn)",
    "Measure name": "growth AUC normalised to DMSO control",
    "Result": 1.02
  },
  {
    "Compound": "CC[C@H](C)C(=O)O[C@H]1CCC=C2C=C[C@H](C)[C@H](CC[C@@H]3C[C@@H](O)CC(=O)O3)[C@H]21",
    "Measure name": "growth AUC normalised to DMSO control",
    "Result": 1.02
  },
  {
    "Compound": "COc1cc(C(=O)NS(=O)(=O)c2ccccc2C)ccc1Cc1cn(C)c2ccc(NC(=O)OC3CCCC3)cc12",
    "Measure name": "growth AUC normalised to DMSO control",
    "Result": 0.966
  },
  {
    "Compound": "CC(=O)N(CC(O)CO)c1c(I)c(C(=O)NCC(O)CO)c(I)c(C(=O)NCC(O)CO)c1I (stereo not drawn) [Iohexol]",
    "Measure name": "growth AUC normalised to DMSO control",
    "Result": 0.995
  },
  {
    "Compound": "COc1cc2nc(N3CCN(C(=O)c4ccco4)CC3)nc(N)c2cc1OC [Prazosin hydrochloride]",
    "Measure name": "growth AUC normalised to DMSO control",
    "Result": 1
  },
  {
    "Compound": "CCSc1ccc2c(c1)N(CCCN1CCN(C)CC1)c1ccccc1S2 [Thiethylperazine maleate]",
    "Measure name": "growth AUC normalised to DMSO control",
    "Result": 0.983
  },
  {
    "Compound": "Cc1cnc(C(=O)O)c[n+]1[O-]",
    "Measure name": "growth AUC normalised to DMSO control",
    "Result": 0.982
  }
]

---

test system: S. enterica typhimurium tolC KO; assay: growth AUC normalised to DMSO control (median) (fraction of control); higher = less growth inhibition, active = hit call of the paper; conditions: 20 µM
Where a name gives a salt, the structure may show the parent alone.
Classes used: active, inactive

[
  {
    "Molecule": "CO/N=C(\\C(=O)N[C@@H]1C(=O)N2C(C(=O)[O-])=C(C[n+]3ccn4ncccc43)CS[C@H]12)c1nsc(N)n1 [Cefozopran hydrochloride]",
    "Class label": "inactive"
  },
  {
    "Molecule": "CCC(NC(C)C)C(O)c1ccc(O)c(O)c1 (centres undefined) [Isoetharine mesylate salt]",
    "Class label": "inactive"
  },
  {
    "Molecule": "CC(C)(C)CC(C)(C)c1ccc(O)c(Cc2ccc(Cl)cc2Cl)c1 [Clofoctol]",
    "Class label": "inactive"
  },
  {
    "Molecule": "CNCC(O)c1ccc(OC(=O)C(C)(C)C)c(OC(=O)C(C)(C)C)c1 (centres undefined) [Dipivefrin hydrochloride]",
    "Class label": "inactive"
  },
  {
    "Molecule": "CCn1cc(C(=O)O)c(=O)c2cnc(N3CCNCC3)nc21 [Pipemidic acid]",
    "Class label": "active"
  },
  {
    "Molecule": "Cc1cn([C@H]2C=C[C@@H](CO)O2)c(=O)[nH]c1=O [Stavudine]",
    "Class label": "inactive"
  },
  {
    "Molecule": "Cc1c(N(C)C)c(=O)n(-c2ccccc2)n1C [Amidopyrine]",
    "Class label": "inactive"
  },
  {
    "Molecule": "CN(C(=O)CN(CCO)CC(=O)N(C)C(C)(C)Cc1ccccc1)C(C)(C)Cc1ccccc1 [Oxethazaine]",
    "Class label": "inactive"
  },
  {
    "Molecule": "C/C(=C1\\CCOC(=O)S1)N(C=O)Cc1cnc(C)nc1N [Cycotiamine]",
    "Class label": "inactive"
  }
]

---

system: P. vulgatus RND KO; assay: growth AUC normalised to DMSO control (median) (fraction of control); higher = less growth inhibition, active = hit call of the paper; details: 20 µM
Structures can show the parent of a compound that is named as a salt.
Measure name: growth AUC normalised to DMSO control

[
  {
    "Compound": "O=c1[nH]c(=O)n([C@H]2C[C@H](O)[C@@H](CO)O2)cc1C(F)(F)F",
    "Result": 0.13
  },
  {
    "Compound": "CC(C)NCC(O)c1cc(O)cc(O)c1 (centres undefined) [Metaproterenol sulfate]",
    "Result": 0.986
  },
  {
    "Compound": "COc1ccc(C(=O)c2ccccc2O)c(O)c1",
    "Result": 0.981
  },
  {
    "Compound": "CCCCc1oc2ccc(NS(C)(=O)=O)cc2c1C(=O)c1ccc(OCCCN(CCCC)CCCC)cc1 [Dronedarone hydrochloride]",
    "Result": 1.01
  }
]

---

tested on: Yersinia pseudotuberculosis; test: growth AUC normalised to DMSO control (fraction of control); higher = less growth inhibition, active = hit call of the paper; conditions: 20 µM
Where a name gives a salt, the structure may show the parent alone.
Measured growth AUC normalised to DMSO control by item
Measure name: growth AUC normalised to DMSO control

[
  {
    "Compound": "OCCOCCN1CCN(C2=Nc3ccccc3Sc3ccccc32)CC1 [Quetiapine hemifumarate]",
    "Result": 0.981
  },
  {
    "Compound": "CCn1cc(C(=O)O)c(=O)c2cc(F)c(N3CCNCC3)cc21 [Norfloxacin]",
    "Result": 0.0323
  },
  {
    "Compound": "CN1CCCN=C1/C=C/c1cccs1 [Pyrantel tartrate]",
    "Result": 1.01
  },
  {
    "Compound": "COc1cccc2c1C(=O)c1c(O)c3c(c(O)c1C2=O)C[C@@](O)(C(=O)CO)C[C@@H]3O[C@H]1C[C@H](N)[C@H](O)[C@H](C)O1 [Doxorubicin hydrochloride]",
    "Result": 0.906
  },
  {
    "Compound": "NS(=O)(=O)Cc1noc2ccccc12 [Zonisamide]",
    "Result": 1
  },
  {
    "Compound": "CCCCCN(C)CCC(O)(P(=O)(O)O)P(=O)(O)O [Ibandronate sodium]",
    "Result": 1.01
  },
  {
    "Compound": "COc1ccccc1Oc1c(NS(=O)(=O)c2ccc(C(C)(C)C)cc2)nc(-c2ncccn2)nc1OCCO [Bosentan]",
    "Result": 1.01
  },
  {
    "Compound": "CN1CCOC(c2ccccc2)c2ccccc2C1 (stereo not drawn) [Nefopam hydrochloride]",
    "Result": 1
  }
]
